target: Sphingosine 1-phosphate receptor 1 (Homo sapiens, UniProt P21453); experiment: Agonist activity at human S1P1 receptor expressed in U20S cells coexpressing eGFP assessed as receptor internalization after 1 hr by microscopy analysis relative to S1P1; format: functional, cell-based; details: U2OS
Sequence (P21453 whole entry): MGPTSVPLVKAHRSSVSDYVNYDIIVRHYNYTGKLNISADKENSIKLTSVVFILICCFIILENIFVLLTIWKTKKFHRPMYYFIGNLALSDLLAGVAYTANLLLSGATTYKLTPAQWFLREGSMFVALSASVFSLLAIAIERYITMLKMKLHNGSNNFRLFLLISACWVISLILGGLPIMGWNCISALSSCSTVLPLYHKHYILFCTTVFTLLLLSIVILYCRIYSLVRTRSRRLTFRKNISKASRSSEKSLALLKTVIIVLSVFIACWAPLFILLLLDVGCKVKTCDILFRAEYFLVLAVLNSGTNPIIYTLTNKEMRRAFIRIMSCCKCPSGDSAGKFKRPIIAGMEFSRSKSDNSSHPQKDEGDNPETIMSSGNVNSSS
Measured Efficacy, listed per entry.
The reply should contain only the number, in %.

Record excerpt, results attached:
> print(dat)
                                   compound  display.unit  measured
1  O=C(O)C1CN(Cc2ccc(-c3nc4ccc(C(=O)N5CCSC5)cc4s3)c(F)c2)C1             %       110
2  CC1SCCN1C(=O)c1ccc2nc(-c3ccc(CN4CC(C(=O)O)C4)cc3F)sc2c1 (racemic)             %        90
3  CC(c1ccc2sc(-c3ccc(CN4CC(C(=O)O)C4)cc3F)nc2c1)c1ccccn1 (racemic)             %        62

Next compound, Efficacy to be filled in.
## Input For the compound shown here, CC(C)C1SCCN1C(=O)c1ccc2nc(-c3ccc(CN4CC(C(=O)O)C4)cc3F)sc2c1 (racemic) , give the reported Efficacy.
## Output 96

====

assay: Plasma concentration in Lewis rat at 10 mg/kg, po after 4 hrs; format: ADME, organism-based; parameters: dose 10 mg/kg, route oral; details: in vivo, 4 h
REPORTED_PROPERTY: concentration
Quote the value and follow it with the unit of measurement.

## Input For the molecule shown here, CCC1SCCN1C(=O)c1ccc2nc(-c3ccc(CN4CC(C(=O)O)C4)cc3F)sc2c1 (single isomer, unassigned; (+)) , give the reported concentration.
## Output 190 nM

====

molecular target: Sphingosine 1-phosphate receptor 3 (Homo sapiens); assay: Agonist activity at human S1P3 receptor expressed in CHO cells coexpressing Gq/i5 protein by calcium flux assay
Sequence (Q99500 whole entry): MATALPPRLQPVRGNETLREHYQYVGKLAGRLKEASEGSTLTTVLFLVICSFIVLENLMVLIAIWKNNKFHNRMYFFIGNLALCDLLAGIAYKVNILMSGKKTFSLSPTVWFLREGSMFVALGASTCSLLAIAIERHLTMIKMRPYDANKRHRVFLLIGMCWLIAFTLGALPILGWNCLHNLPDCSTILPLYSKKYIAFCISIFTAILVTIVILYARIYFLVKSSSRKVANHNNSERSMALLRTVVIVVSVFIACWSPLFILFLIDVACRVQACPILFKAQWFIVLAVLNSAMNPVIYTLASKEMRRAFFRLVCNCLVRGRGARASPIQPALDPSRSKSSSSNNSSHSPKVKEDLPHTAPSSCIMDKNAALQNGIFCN
REPORTED_PROPERTY: EC50 (µM)
The reply should contain only the number, in µM.

Record excerpt, results attached:
> print(dat)
                                   molecule                            assayed.system  display.unit  measured
1  CCC(c1ccc2nc(-c3ccc(CN4CC(C(=O)O)C4)cc3F)sc2c1)c1ccccn1 (single isomer, unassigned)  Sphingosine 1-phosphate receptor 3 (Homo sapiens)            µM      2.06
2  CCC(c1ccc2nc(-c3ccc(CN4CC(C(=O)O)C4)cc3F)sc2c1)c1ccccn1 (single isomer, unassigned; (+))  Sphingosine 1-phosphate receptor 3 (Homo sapiens)            µM      9.75
3  CC1(C)SCCN1C(=O)c1ccc2nc(-c3ccc(CN4CC(C(=O)O)C4)cc3F)sc2c1  Sphingosine 1-phosphate receptor 3 (Homo sapiens)            µM      2.68
4  CC1SCCN1C(=O)c1ccc2nc(-c3ccc(CN4CC(C(=O)O)C4)cc3F)sc2c1 (racemic)  Sphingosine 1-phosphate receptor 3 (Homo sapiens)            µM      2.04
5  CC(C)C1SCCN1C(=O)c1ccc2nc(-c3ccc(CN4CC(C(=O)O)C4)cc3F)sc2c1 (racemic)  Sphingosine 1-phosphate receptor 3 (Homo sapiens)            µM       0.9
6  O=C(O)C1CN(Cc2ccc(-c3nc4ccc(C5(c6ccccc6)CC5)nc4s3)c(F)c2)C1  Sphingosine 1-phosphate receptor 3 (Homo sapiens)            µM     0.888
7  CCC1SCCN1C(=O)c1ccc2nc(-c3ccc(CN4CC(C(=O)O)C4)cc3F)sc2c1 (stereo in doubt; (-)-11f)  Sphingosine 1-phosphate receptor 3 (Homo sapiens)            µM      6.24
8  O=C(O)C1CN(Cc2ccc(-c3nc4cc(Cc5ccccc5)ccc4s3)c(F)c2)C1  Sphingosine 1-phosphate receptor 3 (Homo sapiens)            µM      1.21
9  O=C(O)C1CN(Cc2ccc(-c3nc4ccc(C(=O)N5CCSC5)cc4s3)c(F)c2)C1  Sphingosine 1-phosphate receptor 3 (Homo sapiens)            µM      7.42

Next molecule, EC50 to be filled in.
## Input For the molecule shown here, CCC1SCCN1C(=O)c1ccc2nc(-c3ccc(CN4CC(C(=O)O)C4)cc3F)sc2c1 (single isomer, unassigned; (+)) , give the reported EC50.
## Output 0.39
